- ASSAYED_SYSTEM: N-cNOS (Rattus norvegicus)
- Sequence (P29476 whole entry): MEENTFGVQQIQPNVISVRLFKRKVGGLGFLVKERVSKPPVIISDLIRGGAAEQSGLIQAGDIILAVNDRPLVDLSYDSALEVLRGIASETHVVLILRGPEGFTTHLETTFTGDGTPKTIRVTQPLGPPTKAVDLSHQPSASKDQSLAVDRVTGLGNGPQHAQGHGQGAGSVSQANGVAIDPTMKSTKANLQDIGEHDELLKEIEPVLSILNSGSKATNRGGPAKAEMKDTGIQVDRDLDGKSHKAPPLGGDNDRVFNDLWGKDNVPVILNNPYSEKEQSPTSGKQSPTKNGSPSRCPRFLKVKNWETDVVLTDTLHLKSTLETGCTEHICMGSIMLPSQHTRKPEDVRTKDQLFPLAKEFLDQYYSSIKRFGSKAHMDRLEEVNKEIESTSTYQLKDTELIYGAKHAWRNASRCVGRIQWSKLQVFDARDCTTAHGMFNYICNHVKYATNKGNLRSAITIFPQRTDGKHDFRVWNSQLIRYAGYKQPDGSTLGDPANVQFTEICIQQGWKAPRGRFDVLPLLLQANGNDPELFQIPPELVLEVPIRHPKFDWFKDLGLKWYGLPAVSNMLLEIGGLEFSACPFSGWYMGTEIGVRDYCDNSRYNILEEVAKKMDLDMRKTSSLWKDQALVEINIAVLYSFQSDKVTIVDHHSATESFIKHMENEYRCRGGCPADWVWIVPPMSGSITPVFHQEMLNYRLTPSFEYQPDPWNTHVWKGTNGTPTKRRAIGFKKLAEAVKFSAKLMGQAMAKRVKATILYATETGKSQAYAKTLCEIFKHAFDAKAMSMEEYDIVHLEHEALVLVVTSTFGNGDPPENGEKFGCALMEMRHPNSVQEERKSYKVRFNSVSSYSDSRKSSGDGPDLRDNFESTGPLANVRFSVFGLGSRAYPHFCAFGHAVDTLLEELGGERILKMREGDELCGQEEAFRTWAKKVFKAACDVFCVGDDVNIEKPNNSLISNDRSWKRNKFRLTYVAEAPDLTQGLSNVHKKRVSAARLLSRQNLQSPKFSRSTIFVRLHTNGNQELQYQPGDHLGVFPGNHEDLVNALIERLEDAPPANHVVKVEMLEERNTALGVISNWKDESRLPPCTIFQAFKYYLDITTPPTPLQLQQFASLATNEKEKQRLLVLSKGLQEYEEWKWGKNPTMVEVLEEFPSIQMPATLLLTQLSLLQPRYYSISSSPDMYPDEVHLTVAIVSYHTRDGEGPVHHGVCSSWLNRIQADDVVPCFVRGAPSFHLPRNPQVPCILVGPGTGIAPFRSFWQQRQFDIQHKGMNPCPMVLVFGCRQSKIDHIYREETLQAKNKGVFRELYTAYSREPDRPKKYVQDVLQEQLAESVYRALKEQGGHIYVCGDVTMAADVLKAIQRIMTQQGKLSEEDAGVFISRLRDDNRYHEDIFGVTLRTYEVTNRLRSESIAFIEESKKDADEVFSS
pIC50: −log10 of the molar value. Counter-ions that a name gives are not always drawn.
# if value of pIC50 reaches 7, tag 1.0; if it stays below, tag 0.0

COMPOUND	GROUP_LABEL
N[C@@H](CCCNC1=NCCS1)C(=O)O [Example 8, dihydrochloride]	0.0
Cl.Cl.N=C(NCCC[C@H](N)C(=O)O)SCCF [Example 4, dihydrochloride]	1.0
CSC(=N)NCCCC[C@H](N)C(=O)O.Cl.Cl [Example 10, dihydrochloride]	0.0
CCCSC(=N)NCCC[C@H](N)C(=O)O [Example 12]	0.0

----------
- ASSAYED_SYSTEM: E-cNOS (Bos taurus)
- Construct: the mixture was homogenized for 3 min to yield the crude enzyme sample of E-cNOS; endogenous in cells; host or cells: CPAE (cow pulmonary arterial endothelium cells), whole homogenate
- MEASUREMENT_DESCRIPTION: Inhibition of E-cNOS, homogenate of cow pulmonary arterial endothelium cell (CPAE); conversion of L-[3H] arginine to L-[3H] citrulline
- Format: biochemical
- CONDITION_DESCRIPTION: E-cNOS, CPAE homogenate; 100 μM L-[3H] arginine, 37° C., 10 min, pH 7.4; mean ± standard error
- Method: Compounds of the invention were evaluated for their inhibitory effect against NOS isoforms in comparison with the well known NOS inhibitors. […] The reaction was started by addition of L-[^3 H] arginine and following incubation at 37° C. for 10 min, the reaction was terminated by addition of 2 ml of 50 mM Tris-HCl (pH 5.5) containing 1 mM EDTA and placing the mixture on ice. […] The protein concentration of each crude enzyme sample was determined with a micro-assay kit of Biorad Co. […]
pIC50: −log10 of the molar value. Where a name gives a salt, the structure may show the parent alone.
pIC50: recorded values

MOLECULE	pIC50
N=C(NCCC[C@H](N)C(=O)O)NC1CC1 [L-CPA, N^G -cyclopropyl-L-arginine, reference compound]	5.83
CSC(=N)NCCCC[C@H](N)C(=O)O.Cl.Cl [Example 10, dihydrochloride]	5.19
N[C@@H](CCCNC1=NCCS1)C(=O)O [Example 8, dihydrochloride]	5.48
CCCSC(=N)NCCC[C@H](N)C(=O)O [Example 12]	4.90
C=CCSC(=N)NCCC[C@H](N)C(=O)O.Cl.Cl [Example 6, dihydrochloride]	5.93
Cl.Cl.N=C(NCCC[C@H](N)C(=O)O)SCCF [Example 4, dihydrochloride]	5.88

----------
- ASSAYED_SYSTEM: iNOS (Rattus norvegicus, UniProt Q06518)
- Construct: a soluble cytosolic fraction of the finally obtained supernate was used as the crude enzyme sample of iNOS; from tissue; host or cells: lungs of LPS-treated rats, 100,000×g soluble cytosolic fraction
- Sequence (Q06518 whole entry): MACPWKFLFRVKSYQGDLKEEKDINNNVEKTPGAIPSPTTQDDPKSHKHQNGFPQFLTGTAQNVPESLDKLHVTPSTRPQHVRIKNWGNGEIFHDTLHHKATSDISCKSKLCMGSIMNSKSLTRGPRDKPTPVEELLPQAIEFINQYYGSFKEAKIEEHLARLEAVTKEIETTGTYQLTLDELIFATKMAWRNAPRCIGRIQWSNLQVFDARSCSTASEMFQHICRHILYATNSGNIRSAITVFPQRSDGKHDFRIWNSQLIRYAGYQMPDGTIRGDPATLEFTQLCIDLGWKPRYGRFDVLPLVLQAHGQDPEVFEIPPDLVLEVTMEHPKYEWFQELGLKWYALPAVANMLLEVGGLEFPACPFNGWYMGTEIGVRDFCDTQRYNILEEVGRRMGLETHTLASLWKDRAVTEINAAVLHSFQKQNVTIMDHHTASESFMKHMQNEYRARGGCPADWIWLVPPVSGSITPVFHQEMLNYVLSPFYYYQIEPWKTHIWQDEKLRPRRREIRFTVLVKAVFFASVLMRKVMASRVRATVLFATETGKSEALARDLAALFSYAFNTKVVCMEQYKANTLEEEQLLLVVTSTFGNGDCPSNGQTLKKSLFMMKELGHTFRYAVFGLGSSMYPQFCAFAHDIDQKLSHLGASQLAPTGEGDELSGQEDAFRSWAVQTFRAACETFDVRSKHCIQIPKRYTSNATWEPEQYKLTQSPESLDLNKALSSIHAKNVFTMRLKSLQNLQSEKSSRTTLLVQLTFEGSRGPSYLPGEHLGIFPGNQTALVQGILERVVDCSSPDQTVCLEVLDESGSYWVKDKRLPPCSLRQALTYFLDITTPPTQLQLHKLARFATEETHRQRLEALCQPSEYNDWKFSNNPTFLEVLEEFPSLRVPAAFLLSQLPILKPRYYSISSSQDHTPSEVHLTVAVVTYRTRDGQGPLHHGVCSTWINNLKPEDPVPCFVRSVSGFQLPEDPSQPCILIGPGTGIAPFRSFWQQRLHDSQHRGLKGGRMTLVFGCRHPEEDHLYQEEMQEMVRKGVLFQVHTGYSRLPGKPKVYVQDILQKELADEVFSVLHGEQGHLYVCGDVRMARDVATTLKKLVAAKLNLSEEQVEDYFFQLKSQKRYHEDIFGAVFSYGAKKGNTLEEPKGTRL
- MEASUREMENT_DESCRIPTION: Inhibition of iNOS, soluble fraction of lungs of LPS-treated rats; conversion of L-[3H] arginine to L-[3H] citrulline
- Type: biochemical
- CONDITION_DESCRIPTION: iNOS, LPS rat lung; 100 μM L-[3H] arginine, 37° C., 10 min, pH 7.4; mean ± standard error
Counter-ions that a name gives are not always drawn.
# MET = IC50 below 5 µM (exclusive); NOT MET = IC50 at/above 5 µM

COMPOUND	GROUP_LABEL
CCCSC(=N)NCCC[C@H](N)C(=O)O	MET
CC(=N)NCCC[C@H](N)C(=O)O [L-NIO, N^G -iminoethyl-ornithine, reference compound]	MET
C=CCNC(=N)NCCC[C@H](N)C(=O)O [L-ALA, N^G -allyl-L-arginine, reference compound]	NOT MET
O=[N+]([O-])c1cccc2cn[nH]c12 [Example 7-NI, 7-nitroindazole, reference compound]	NOT MET
Cl.Cl.N=C(NCCC[C@H](N)C(=O)O)SCCF [Example 4, dihydrochloride]	MET
CSC(=N)NCCCC[C@H](N)C(=O)O.Cl.Cl [Example 10, dihydrochloride]	NOT MET
C=CCSC(=N)NCCC[C@H](N)C(=O)O.Cl.Cl [Example 6, dihydrochloride]	MET
N[C@@H](CCCNC1=NCCS1)C(=O)O [Example 8, dihydrochloride]	NOT MET
